Cited source: patent US5010058A

- Test system: normal spleen cells / splenic T-lymphocytes (Con-A stimulated)
- test description: Con-A blastogenic response of normal spleen cells (3H-thymidine incorporation)
- Type: cell-based, mouse (C57Bl/6)
- condition: Mus musculus, T-lymphocyte, 72 h, Con-A 4 ug/ml; compound 100 ug/ml; percent change from no compound; read-out: Blastogenic response of normal spleen cells to Con-A; % effect
- Text: A simple method is used to screen compounds for their ability to modulate T-lymphocyte activity which comprises assessing the capacity of the compounds to alter the activation of murine spleen cells in response to T-lymphocyte mitogen activators, such as concanavalin-A (Con-A). The method used to measure the effects of the compounds of the present invention on the blastogenic response of spleen cells to the T-lymphocyte mitogen, (i.e., Con-A), is as follows. […]
measured attribute: inhibition at 100 µg/mL (%)
Answers are plain numbers, in %.

Some solved entries appear below for comparison.
1. CCCCCCCOC(C)C1OC2OC(C)(C)OC2C1O (stereo not shown) = 98
2. CCCCCCCOC(C)C1OC2OC(C)(C)OC2C1OCCCN(C)C (stereo not shown) = 93
3. CCCCCCCCCCCNCC(O)C1OC2OC(C)(C)OC2C1O (stereo not shown) = 97

Below: the item to evaluate.
Lab note: molecule CCCCCCCNCC(O)C1OC2OC(C)(C)OC2C1OCCCCCCC (stereo not shown) tested on normal spleen cells / splenic T-lymphocytes (Con-A stimulated); recorded inhibition at 100 µg/mL was 93

---

- Test system: normal spleen cells / splenic T-lymphocytes (Con-A stimulated)
- test description: Con-A blastogenic response of normal spleen cells (3H-thymidine incorporation)
- Type: cell-based, mouse (C57Bl/6)
- condition: Mus musculus, T-lymphocyte, 72 h, Con-A 1 ug/ml; compound 750 ug/ml; percent change from no compound; read-out: Blastogenic response of normal spleen cells to Con-A; % effect
What inhibition at 750 µg/mL was measured for each of the following?

Some solved entries appear below for comparison.
1. CCCCCCCCCCCNCC(O)C1OC2OC(C)(C)OC2C1O (stereo not shown) [Ex. 2] = 97%
2. CCCCCCCNCC(O)C1OC2OC(C)(C)OC2C1OCCCCCCC (stereo not shown) [Ex. 4] = 95%
3. CCCCCCCOC(C)C1OC2OC(C)(C)OC2C1OCCCN(C)C (stereo not shown) [Ex. 6] = 95%

Below: the item to evaluate.
Given item CCCCCCCOC(C)C1OC2OC(C)(C)OC2C1O (stereo not shown) [Ex. 5] , the value recorded as its inhibition at 750 µg/mL is 87%

---

- System: normal spleen cells / splenic T-lymphocytes (Con-A stimulated)
- test description: Con-A blastogenic response of normal spleen cells (3H-thymidine incorporation)
- Type: cell-based, mouse (C57Bl/6)
- condition: Con-A 1 ug/ml; compound 300 ug/ml; triplicates ± SD
measured attribute: Blastogenic response of normal spleen cells to Con-A

Some solved entries appear below for comparison.
1) CCCCCCCCCCCNCC(O)C1OC2OC(C)(C)OC2C1O (centres unmarked) = 2,934 ± 299 cpm
2) CCCCCCCNCC(O)C1OC2OC(C)(C)OC2C1OCCCCCCC (centres unmarked) = 9,102 ± 6,857 cpm
3) CCCCCCCOC(C)C1OC2OC(C)(C)OC2C1O (centres unmarked) = 8,698 ± 786 cpm

Batch request: Blastogenic response of normal spleen cells to Con-A per item, same order as input.
1. CCCCCCCNC[C@H]1OC(C)(C)O[C@@H]2[C@H]3OC(C)(C)O[C@H]3O[C@@H]21
2. CCCCCCCOC(C)C1OC2OC(C)(C)OC2C1OCCCN(C)C (centres unmarked)

1. 5,398 ± 4,008 cpm
2. 3,693 ± 340 cpm

---

- System: normal spleen cells / splenic T-lymphocytes (Con-A stimulated)
- test description: Con-A blastogenic response of normal spleen cells (3H-thymidine incorporation)
- Assay type: cell-based, mouse (C57Bl/6)
- condition: Con-A 4 ug/ml; compound 25 ug/ml; triplicates ± SD
measured attribute: Blastogenic response of normal spleen cells to Con-A

Some solved entries appear below for comparison.
1) CCCCCCCOC(C)C1OC2OC(C)(C)OC2C1O (centres unmarked) = 62,068 ± 3,736 cpm
2) CCCCCCCNC[C@H]1OC(C)(C)O[C@@H]2[C@H]3OC(C)(C)O[C@H]3O[C@@H]21 = 6,201 ± 1,410 cpm
3) CCCCCCCOC(C)C1OC2OC(C)(C)OC2C1OCCCN(C)C (centres unmarked) = 6,187 ± 6,859 cpm
4) CCCCCCCCCCCNCC(O)C1OC2OC(C)(C)OC2C1O (centres unmarked) = 1,635 ± 635 cpm

Below: the item to evaluate.
Given item CCCCCCCNCC(O)C1OC2OC(C)(C)OC2C1OCCCCCCC (centres unmarked) , the value recorded as its Blastogenic response of normal spleen cells to Con-A is 13,114 ± 8,696 cpm
